B1: ATGL (PNPLA2, patatin-like phospholipase domain-containing protein 2), human, full length / CIDEC (FSP27), human (parent)
chain 1: MFPREKTWNISFAGCGFLGVYYVGVASCLREHAPFLVANATHIYGASAGALTATALVTGVCLGEAGAKFIEVSKEARKRFLGPLHPSFNLVKIIRSFLLKVLPADSHEHASGRLGISLTRVSDGENVIISHFNSKDELIQANVCSGFIPVYCGLIPPSLQGVRYVDGGISDNLPLYELKNTITVSPFSGESDICPQDSSTNIHELRVTNTSIQFNLRNLYRLSKALFPPEPLVLREMCKQGYRDGLRFLQRNGLLNRPNPLLALPPARPHGPEDKDQAVESAQAEDYSQLPGEDHILEHLPARLNEALLEACVEPTDLLTTLSNMLPVRLATAMMVPYTLPLESALSFTIRLLEWLPDVPEDIRWMKEQTGSICQYLVMRAKRKLGRHLPSRLPEQVELRRVQSLPSVPLSCAAYREALPGWMRNNLSLGDALAKWEECQRQLLLGLFCTNVAFPPEALRMRAPADPAPAPADPASPQHQLAGPAPLLSTPAPEARPVIGALGL
chain 2: MEYAMKSLSLLYPKSLSRHVSVRTSVVTQQLLSEPSPKAPRARPCRVSTADRSVRKGIMAYSLEDLLLKVRDTLMLADKPFFLVLEEDGTTVETEEYFQALAGDTVFMVLQKGQKWQPPSEQGTRHPLSLSHKPAKKIDVARVTFDLYKLNPQDFIGCLNVKATFYDTYSLSYDLHCCGAKRIMKEAFRWALFSMQATGHVLLGTSCYLQQLLDATEEGQPPKGKASSLIPTCLKILQ

# Variants of: B1
# Assay explanation: LUMIER: Protein A-ATGL variant and firefly luciferase-partner co-expressed in HEK293T, lysates immunoprecipitated on IgG-coated plates, co-precipitated partner measured as luciferase luminescence
# Recorded conditions: with CIDEC (FSP27), transient co-transfection, IgG-coated LUMITRAC plates, 2 h at 4 °C, three PBS washes, Bright-Glo luciferase reagent, triplicates per assay, two …, parent: 0.17, not graded, scale: log2 fold change of co-immunoprecipitated luminescence relative to wild-type ATGL within each experiment
Measured endpoint: screen value

Example cases with answers are listed next.
chain 1 A434L; -0.034
chain 1 I70A; -0.118
chain 1 S87E; -0.478
chain 1 A453E; 0.56
chain 1 F35A; 0.00149

I. chain 1 V127L
II. chain 1 P258L
Task item: Parameter check: reported screen value is higher for which label, I or II ? I would appreciate it if you answered with the label of your choice.
Reply: I

A. chain 1 L159A
B. chain 1 E125L
Task item: Field: lower screen value | Options: A / B I would appreciate it if you answered with the label of your choice.
Reply: A
(A: -0.648, B: -0.231)
